# protocol_description: self-splicing fitness, log relative to wild type (ln ratio); higher = more splicing; Tetrahymena group I intron in knt gene, E. coli kanamycin selection, DiMSum; sequences stand for … in CUCUCU…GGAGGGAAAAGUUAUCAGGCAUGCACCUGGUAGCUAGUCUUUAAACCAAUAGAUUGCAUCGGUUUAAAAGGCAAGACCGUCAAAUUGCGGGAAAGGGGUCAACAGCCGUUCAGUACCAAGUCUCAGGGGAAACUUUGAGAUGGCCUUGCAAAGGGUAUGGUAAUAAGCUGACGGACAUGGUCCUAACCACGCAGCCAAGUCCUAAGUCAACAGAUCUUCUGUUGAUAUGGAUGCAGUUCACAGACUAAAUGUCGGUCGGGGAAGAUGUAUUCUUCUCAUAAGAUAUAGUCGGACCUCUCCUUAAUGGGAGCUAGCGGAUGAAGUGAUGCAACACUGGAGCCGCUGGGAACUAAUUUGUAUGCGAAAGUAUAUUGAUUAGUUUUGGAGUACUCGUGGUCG;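 also: selection with 25 µg/mL kanamycin versus none on LB agar overnight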
# protocol_conditions: 37 °C
outcome_measure: self-splicing fitness (ln)

{"residue_sequence": "CAAGAGCAAUAUUACGUUCG", "measured_value": -0.199}
{"residue_sequence": "CUAGAGCAAUAUUACGGUUG", "measured_value": -0.329}
{"residue_sequence": "CACUAGCAAUAUUACGUGCC", "measured_value": -2.17}
{"residue_sequence": "UGUUAGCAAUAUUACGACUC", "measured_value": -0.182}
{"residue_sequence": "UUAAAGCAAUAUUACGGAGG", "measured_value": -1.27}
{"residue_sequence": "CCAUAGCAAUAUUACGUGCG", "measured_value": -0.772}

###

# protocol_description: self-splicing fitness, log relative to wild type (ln ratio); higher = more splicing; Tetrahymena group I intron in knt gene, E. coli kanamycin selection, DiMSum; sequences stand for … in CUCUCU…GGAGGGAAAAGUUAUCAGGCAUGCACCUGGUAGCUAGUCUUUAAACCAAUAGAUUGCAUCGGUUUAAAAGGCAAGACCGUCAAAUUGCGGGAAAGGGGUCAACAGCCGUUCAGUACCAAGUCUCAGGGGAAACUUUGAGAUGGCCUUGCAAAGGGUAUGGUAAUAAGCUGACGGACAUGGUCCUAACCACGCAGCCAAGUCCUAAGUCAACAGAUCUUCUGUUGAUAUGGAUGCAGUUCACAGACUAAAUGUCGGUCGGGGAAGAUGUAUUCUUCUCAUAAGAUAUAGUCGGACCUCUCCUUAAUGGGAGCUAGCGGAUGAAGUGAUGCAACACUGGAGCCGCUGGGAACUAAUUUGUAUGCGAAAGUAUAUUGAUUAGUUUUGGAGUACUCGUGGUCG
# protocol_conditions: 30 °C
outcome_measure: self-splicing fitness (ln)

{"residue_sequence": "AAGUAGCAAUAUUACGUAGA", "measured_value": -3.01}
{"residue_sequence": "CGUGAGCAAUAUUACGUGGG", "measured_value": -2.91}
{"residue_sequence": "AAUAAGCAAUAUUACGGGAG", "measured_value": -2.91}
{"residue_sequence": "GGUUAGCAAUAUUACGGGGA", "measured_value": -2.05}
{"residue_sequence": "AGCCAGCAAUAUUACGUCGC", "measured_value": -3.44}
{"residue_sequence": "UACCAGCAAUAUUACGCGGG", "measured_value": -3.61}
{"residue_sequence": "CUUGAGCAAUAUUACGACGA", "measured_value": -2.83}
{"residue_sequence": "CGCAAGCAAUAUUACGAAGU", "measured_value": -4.42}
{"residue_sequence": "AUGAAGCAAUAUUACGUUUU", "measured_value": -2.36}
{"residue_sequence": "AGGGAGCAAUAUUACGAUAG", "measured_value": -2.56}
{"residue_sequence": "GAUUAGCAAUAUUACGUGAU", "measured_value": -3.04}
{"residue_sequence": "CCUUAGCAAUAUUACGACGG", "measured_value": -2.31}
{"residue_sequence": "ACUCAGCAAUAUUACGUGAC", "measured_value": -3.15}
{"residue_sequence": "CUUGAGCAAUAUUACGGCGC", "measured_value": -3.72}
{"residue_sequence": "CGUAAGCAAUAUUACGCAUA", "measured_value": -3.73}
{"residue_sequence": "CCCUAGCAAUAUUACGAAAU", "measured_value": -2.88}
{"residue_sequence": "UCGUAGCAAUAUUACGCUCA", "measured_value": -0.522}
{"residue_sequence": "UGCUAGCAAUAUUACGUGGG", "measured_value": -3.58}
{"residue_sequence": "UUACAGCAAUAUUACGCCAG", "measured_value": -1.74}
{"residue_sequence": "GUAAAGCAAUAUUACGCAUA", "measured_value": -1.1}
{"residue_sequence": "CAAUAGCAAUAUUACGUCAG", "measured_value": -1.95}
{"residue_sequence": "UACCAGCAAUAUUACGGCGU", "measured_value": -0.619}
{"residue_sequence": "GUAAAGCAAUAUUACGGUAC", "measured_value": -1.61}
{"residue_sequence": "CAUAAGCAAUAUUACGUCAA", "measured_value": -3.33}
{"residue_sequence": "GGUUAGCAAUAUUACGGGCC", "measured_value": -2.52}
{"residue_sequence": "ACCGAGCAAUAUUACGACAA", "measured_value": -2.37}
{"residue_sequence": "GACUAGCAAUAUUACGCGGG", "measured_value": -2.7}
{"residue_sequence": "UUAGAGCAAUAUUACGACGA", "measured_value": 0.428}
{"residue_sequence": "UCAGAGCAAUAUUACGUACU", "measured_value": -3.35}
{"residue_sequence": "UACAAGCAAUAUUACGUCAC", "measured_value": -3.37}
{"residue_sequence": "CGUAAGCAAUAUUACGGGAG", "measured_value": -2.21}
{"residue_sequence": "GCCUAGCAAUAUUACGCGCG", "measured_value": -1.66}
{"residue_sequence": "UUGAAGCAAUAUUACGCCAA", "measured_value": -0.371}
{"residue_sequence": "GCGAAGCAAUAUUACGAGGU", "measured_value": -2.98}
{"residue_sequence": "AUAUAGCAAUAUUACGUCGC", "measured_value": -2.48}
{"residue_sequence": "CGUAAGCAAUAUUACGAUUA", "measured_value": -2.03}
{"residue_sequence": "CACUAGCAAUAUUACGACGU", "measured_value": -2.27}
{"residue_sequence": "CCCAAGCAAUAUUACGACAG", "measured_value": -4.22}
{"residue_sequence": "CGAAAGCAAUAUUACGAUGA", "measured_value": -0.9}
{"residue_sequence": "ACUUAGCAAUAUUACGUCUC", "measured_value": -2.31}
{"residue_sequence": "UUGCAGCAAUAUUACGCAUC", "measured_value": -3.11}
{"residue_sequence": "AUAUAGCAAUAUUACGUUUC", "measured_value": -2.54}
{"residue_sequence": "CUUGAGCAAUAUUACGGAGG", "measured_value": -2.13}

###

# protocol_description: self-splicing fitness, log relative to wild type (ln ratio); higher = more splicing; Tetrahymena group I intron in knt gene, E. coli kanamycin selection, DiMSum; sequences stand for … in CUCUCU…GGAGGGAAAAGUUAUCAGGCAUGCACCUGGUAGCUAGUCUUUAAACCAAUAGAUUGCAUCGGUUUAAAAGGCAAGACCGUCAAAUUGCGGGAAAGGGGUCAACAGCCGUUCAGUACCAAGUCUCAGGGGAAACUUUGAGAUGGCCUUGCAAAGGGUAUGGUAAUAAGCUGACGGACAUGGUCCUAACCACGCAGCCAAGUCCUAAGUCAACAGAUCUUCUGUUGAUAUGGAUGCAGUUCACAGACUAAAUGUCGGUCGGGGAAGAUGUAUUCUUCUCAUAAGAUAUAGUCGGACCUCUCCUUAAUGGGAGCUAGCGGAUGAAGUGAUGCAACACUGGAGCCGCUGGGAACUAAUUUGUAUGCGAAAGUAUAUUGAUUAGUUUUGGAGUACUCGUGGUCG
# protocol_conditions: 30 °C
self-splicing fitness (ln) values for the sequences below.
outcome_measure: self-splicing fitness (ln)

{"residue_sequence": "UGUGAGCAAUAUUACGUGUG", "outcome_measure": "self-splicing fitness (ln)", "measured_value": -2.7}
{"residue_sequence": "GAACAGCAAUAUUACGUUAC", "outcome_measure": "self-splicing fitness (ln)", "measured_value": -2.53}
{"residue_sequence": "AUUAAGCAAUAUUACGGUAU", "outcome_measure": "self-splicing fitness (ln)", "measured_value": -1.01}
{"residue_sequence": "GCGGAGCAAUAUUACGCGCA", "outcome_measure": "self-splicing fitness (ln)", "measured_value": -2.93}
{"residue_sequence": "ACUGAGCAAUAUUACGAAUU", "outcome_measure": "self-splicing fitness (ln)", "measured_value": -2.97}
{"residue_sequence": "UACUAGCAAUAUUACGACCA", "outcome_measure": "self-splicing fitness (ln)", "measured_value": 0.122}
{"residue_sequence": "ACGAAGCAAUAUUACGGUCU", "outcome_measure": "self-splicing fitness (ln)", "measured_value": -0.57}
{"residue_sequence": "GCCCAGCAAUAUUACGUUCG", "outcome_measure": "self-splicing fitness (ln)", "measured_value": -3.71}
{"residue_sequence": "CGCAAGCAAUAUUACGAAAG", "outcome_measure": "self-splicing fitness (ln)", "measured_value": -0.888}
{"residue_sequence": "GGCCAGCAAUAUUACGCAAG", "outcome_measure": "self-splicing fitness (ln)", "measured_value": -3.48}
{"residue_sequence": "AUUUAGCAAUAUUACGGGCG", "outcome_measure": "self-splicing fitness (ln)", "measured_value": -1.77}
{"residue_sequence": "UGUUAGCAAUAUUACGGAUA", "outcome_measure": "self-splicing fitness (ln)", "measured_value": -1.36}
{"residue_sequence": "ACUAAGCAAUAUUACGCAAA", "outcome_measure": "self-splicing fitness (ln)", "measured_value": -2.51}
{"residue_sequence": "GCAUAGCAAUAUUACGCACU", "outcome_measure": "self-splicing fitness (ln)", "measured_value": -0.629}
{"residue_sequence": "GACGAGCAAUAUUACGGGAU", "outcome_measure": "self-splicing fitness (ln)", "measured_value": -4.33}
{"residue_sequence": "GACGAGCAAUAUUACGACCC", "outcome_measure": "self-splicing fitness (ln)", "measured_value": -0.0053}
{"residue_sequence": "AGUAAGCAAUAUUACGAAGC", "outcome_measure": "self-splicing fitness (ln)", "measured_value": -3.12}
{"residue_sequence": "GCAAAGCAAUAUUACGAGCG", "outcome_measure": "self-splicing fitness (ln)", "measured_value": -1.06}
{"residue_sequence": "GAAGAGCAAUAUUACGGCUA", "outcome_measure": "self-splicing fitness (ln)", "measured_value": -1.5}
{"residue_sequence": "UGUUAGCAAUAUUACGGGGU", "outcome_measure": "self-splicing fitness (ln)", "measured_value": -2.47}
{"residue_sequence": "AAACAGCAAUAUUACGUAAG", "outcome_measure": "self-splicing fitness (ln)", "measured_value": -1.23}
{"residue_sequence": "UAUUAGCAAUAUUACGCCAA", "outcome_measure": "self-splicing fitness (ln)", "measured_value": -1.65}
{"residue_sequence": "GCUAAGCAAUAUUACGCGUG", "outcome_measure": "self-splicing fitness (ln)", "measured_value": -1.88}
{"residue_sequence": "CCGGAGCAAUAUUACGCAUU", "outcome_measure": "self-splicing fitness (ln)", "measured_value": -2.9}
{"residue_sequence": "CAGUAGCAAUAUUACGUCCU", "outcome_measure": "self-splicing fitness (ln)", "measured_value": -3.2}
